Tested on: NCI-H1944
experimental_protocol: normalised cell viability (NPI; 0 = phenylarsine oxide control, 1 = DMSO control) (fraction of DMSO control); higher = more viable cells (less compound toxicity)
measurement_parameters: glucocorticoid arm: hydrocortisone 2.75 uM co-treatment; compound 5 µM; 6 days
In all, about 1,900 compounds were measured (“normalised cell viability (NPI; 0 = phenylarsine oxide control, 1 = DMSO control)”: median about 1, lowest 2% from about 0.039 on). This excerpt belongs to a sample that is enriched for the lowest values.
Cut-off 1 on normalised cell viability: below means YES, at or above means NO.

Example cases with answers are listed next.
entry_smiles	measured_on	label
O=C(/C=C/c1ccc2ccccc2n1)c1ccncc1	NCI-H1944	NO
CCN1C(=CC(C)=O)Sc2ccc(OC)cc21	NCI-H1944	YES
C[C@]12CC[C@@H]3c4ccc(O)cc4CC[C@H]3[C@@H]1CC[C@@H]2O	NCI-H1944	YES

Then there is this compound:
query: Answer whether the compound O=C1OC(=O)[C@H]2[C@@H]1[C@@H]1CC[C@H]2O1 has normalised cell viability strictly less than 1
result: NO

---

Tested on: NCI-H1944
experimental_protocol: normalised cell viability (NPI; 0 = phenylarsine oxide control, 1 = DMSO control) (fraction of DMSO control); higher = more viable cells (less compound toxicity)
measurement_parameters: glucocorticoid arm: hydrocortisone 2.75 uM pre-treated 2 days and continued; compound 1 µM; 6 days
Over roughly 1,900 compounds, “normalised cell viability (NPI; 0 = phenylarsine oxide control, 1 = DMSO control)” has its median near 1; the lowest 2% begin near 0.039. The full list was thinned out, with the lowest values kept by preference.
Cut-off 1 on normalised cell viability: below means 1, at or above means -1.

molecule	measured_on	label
Cc1cc(C(=O)NOCCO)c(Nc2ccc(I)cc2F)n(C)c1=O	NCI-H1944	1
Nc1ncn([C@@H]2O[C@H](CO)[C@@H](O)[C@H]2O)c(=O)n1 [Azacitidine; 5-azacytidine]	NCI-H1944	-1
CN(C)CCOc1ccc(-c2nc(-c3ccncc3)c(-c3ccc4c(c3)CC/C4=N\O)[nH]2)cc1	NCI-H1944	-1
COC(=O)Nc1ccc(-c2nc(N3CCOCC3)c3cnn(C4CCN(C(=O)OC)CC4)c3n2)cc1	NCI-H1944	1
CCc1c(C(=O)NCCc2ccc(N3CCCCC3)cc2)[nH]c2ccc(Cl)cc12	NCI-H1944	-1
Cn1c(=O)c(F)c(Nc2ccc(I)cc2F)c2c(=O)n(C[C@@H](O)CO)cnc21	NCI-H1944	1

query: Answer whether the molecule COC(=O)C[C@](O)(CCCC(C)(C)O)C(=O)O[C@@H]1C(OC)=C[C@]23CCCN2CCc2cc4c(cc2[C@H]13)OCO4 [Omacetaxine mepesuccinate] has normalised cell viability strictly less than 1
result: 1

query: Answer whether the molecule Nc1ccn([C@@H]2O[C@H](CO)[C@@H](O)[C@@H]2O)c(=O)n1 has normalised cell viability strictly less than 1
result: 1

query: Answer whether the molecule CNC(=O)c1nn(C)c2c1C(C)(C)Cc1cnc(Nc3ccc(N4CCN(C)CC4)cc3)nc1-2 has normalised cell viability strictly less than 1
result: 1

query: Answer whether the molecule CC(C)C[C@H](NC(=O)[C@H](CCc1ccccc1)NC(=O)CN1CCOCC1)C(=O)N[C@@H](Cc1ccccc1)C(=O)N[C@@H](CC(C)C)C(=O)[C@@]1(C)CO1 [Carfilzomib (PR-171)] has normalised cell viability strictly less than 1
result: 1

---

Tested on: NCI-H1944
experimental_protocol: normalised cell viability (NPI; 0 = phenylarsine oxide control, 1 = DMSO control) (fraction of DMSO control); higher = more viable cells (less compound toxicity)
measurement_parameters: glucocorticoid arm: vehicle; compound 1 µM; 6 days
Structures can show the parent of a compound that is named as a salt. The full ranking holds about 1,900 compounds; the median of “normalised cell viability (NPI; 0 = phenylarsine oxide control, 1 = DMSO control)” is about 1, and the lowest 2% start at about 0.039. The sample as a whole holds a higher share of the lowest values than the screen did.
I'd be grateful if you could share measured normalised cell viability for these entries.
One number for each entry.

molecule	recorded_value
NCCC[C@](N)(C(=O)O)C(F)F (racemic) [DL-alpha-Difluoromethylornithine hydrochloride]	0.986

Report normalised cell viability for every entry below.
1. C/C=C1\NC(=O)[C@H]2CSSCC/C=C/[C@H](CC(=O)N[C@H](C(C)C)C(=O)N2)OC(=O)[C@H](C(C)C)NC1=O [Romidepsin (FK228, Depsipeptide)]
2. O=C(O)[C@@H]1C[C@H](C(=O)O)N1 [cis-Azetidine-2,4-dicarboxylic acid]
3. CNCC[C@@H](Oc1ccc(C(F)(F)F)cc1)c1ccccc1 [R-(-)-Fluoxetine hydrochloride]
4. C/C=C1\NC(=O)[C@H]2CSSCC/C=C/[C@H](CC(=O)N[C@H](C(C)C)C(=O)N2)OC(=O)[C@H](C(C)C)NC1=O [Romidepsin]

result:
1. 0.00559
2. 0.986
3. 0.995
4. 0.99

Report normalised cell viability for every entry below.
1. CN1CC[C@H](c2c(O)cc(O)c3c(=O)cc(-c4ccccc4Cl)oc23)[C@H](O)C1 [Flavopiridol hydrochloride]
2. Nc1nccc2c1ncn2[C@@H]1O[C@H](CO)[C@@H](O)[C@H]1O
3. NC(=O)c1cc[n+](CC2=C(C(=O)O)N3C(=O)[C@@H](NC(=O)C(c4ccccc4)S(=O)(=O)[O-])[C@H]3SC2)cc1 (stereo not given in full) [Cefsulodin sodium salt hydrate]
4. N#CC(=C(/N)Sc1ccccc1N)/C(C#N)=C(\N)Sc1ccccc1N
5. CN1CC[C@H](c2c(O)cc(O)c3c(=O)cc(-c4ccccc4Cl)oc23)[C@H](O)C1 [Flavopiridol (Alvocidib)]

result:
1: 0.0103; 2: 0.969; 3: 0.997; 4: 1.02; 5: 0.0171

Report normalised cell viability for every entry below.
1. CN1CC[C@@H](c2c(O)cc(O)c3c(=O)cc(-c4ccccc4Cl)oc23)[C@@H]1CO
2. Nc1ncnc2c1c(-c1cccc(OCc3ccccc3)c1)cn2C1CC(CN2CCC2)C1 (stereo not given)
3. CC(C(=O)Nc1cccc(/N=C/c2c(O)ccc3ccccc23)c1)c1ccccc1 (stereo not given) [Salermide]
4. C=CCN1CCc2c(cc(O)c(O)c2Cl)C(c2ccccc2)C1 (racemic) [(±)-Chloro-APB hydrobromide]

result:
[0.0431, 0.939, 0.997, 0.994]

query: Identify measured normalised cell viability corresponding to C=C/C(C)=C/[C@@]1(C)SC(=O)C(C)=C1O
result: 0.988

---

I'd be grateful if you could share measured normalised cell viability for these entries.
Tested on: NCI-H1944
experimental_protocol: normalised cell viability (NPI; 0 = phenylarsine oxide control, 1 = DMSO control) (fraction of DMSO control); higher = more viable cells (less compound toxicity)
measurement_parameters: glucocorticoid arm: vehicle; compound 5 µM; 6 days
Structures can show the parent of a compound that is named as a salt. Whole data set: some 1,900 compounds, median “normalised cell viability (NPI; 0 = phenylarsine oxide control, 1 = DMSO control)” near 1, cut for the lowest 2% near 0.039. For the sample, the lowest values were picked, then their nearest neighbours and some compounds at random.
Give bare numbers.

compound	normalised cell viability
CCCCOc1cc(CC2CNC(=O)N2)ccc1OC (centres undefined)	1.01

Report normalised cell viability for every entry below.
1. CN1CCC[C@@H]1Cc1c[nH]c2ccc(CCS(=O)(=O)c3ccccc3)cc12 [Eletriptan HBr]
2. CC(C)[C@H]1c2ccc(F)cc2CC[C@@]1(CCN(C)CCCc1nc2ccccc2[nH]1)OC(=O)C1CC1

result:
[1, "-6.33e-05"]

query: Identify measured normalised cell viability corresponding to COCC(=O)O[C@]1(CCN(C)CCCc2nc3ccccc3[nH]2)CCc2cc(F)ccc2[C@@H]1C(C)C [Mibefradil dihydrochloride]
result: 0.00844

---

I'd be grateful if you could share measured normalised cell viability for these entries.
Tested on: NCI-H1944;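 note: CTB read-out in 384-well plates, triplicate wells, NPI normalised per plate against 1 µM phenylarsine oxide (0) and 0.1% DMSO (1) controls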
experimental_protocol: normalised cell viability (NPI; 0 = phenylarsine oxide control, 1 = DMSO control) (fraction of DMSO control); NCI-H1944 is a non-small cell lung cancer line; higher = more viable cells (less compound toxicity)
measurement_parameters: glucocorticoid arm: hydrocortisone 2.75 uM pre-treated 2 days and continued; compound 5 µM; 6 days
Where a name gives a salt, the structure may show the parent alone. Over roughly 1,900 compounds, “normalised cell viability (NPI; 0 = phenylarsine oxide control, 1 = DMSO control)” has its median near 1; the lowest 2% begin near 0.039. This is one part of a sample in which the lowest values are shown more often than they occur.

As a guide, the following entries are already answered.
molecule	measured_on	normalised cell viability
CN(N=O)C(=O)N[C@@H]1[C@@H](O)[C@H](O)[C@@H](CO)O[C@@H]1O [Streptozocin]	NCI-H1944	1.04
CC(C)C[C@H](NP(=O)(O)O[C@H]1O[C@H](C)[C@@H](O)[C@H](O)[C@@H]1O)C(=O)N[C@@H](Cc1c[nH]c2ccccc12)C(=O)O [Phosphoramidon disodium]	NCI-H1944	0.999

Report normalised cell viability for every entry below.
1. CC[C@]1(O)C[C@@H]2CN(CCc3c([nH]c4ccccc34)[C@@](C(=O)OC)(c3cc4c(cc3OC)N(C)[C@H]3[C@@](O)(C(=O)OC)[C@H](OC(C)=O)[C@]5(CC)C=CCN6CC[C@]43[C@@H]65)C2)C1 [Vinblastine sulfate salt]
2. COC(=O)C(C)(N)Cc1ccc(O)cc1 (racemic) [alpha-Methyl-DL-tyrosine methyl ester hydrochloride]
3. CC(C)C(=O)Oc1ccc(CO)cc1[C@H](CCN(C(C)C)C(C)C)c1ccccc1 [Fesoterodine Fumarate]
4. CN1CCN(C(=O)c2cc3cc(Cl)ccc3[nH]2)CC1
5. Cc1[nH]c(/C=C2\C(=O)Nc3ccc(S(=O)(=O)N(C)c4cccc(Cl)c4)cc32)c(C)c1C(=O)N1CCN(C)CC1
6. COC1=C(OC)C(=O)c2ccccc2C1=O [2,3-Dimethoxy-1,4-naphthoquinone]
7. [N-]=[N+]=Nc1ccc(C(=O)CSC[C@H](NC(=O)CC[C@H](N)C(=O)O)C(=O)NCC(=O)O)cc1 [S-(p-Azidophenacyl)glutathione]

result:
0.94
0.999
0.984
1.03
0.989
0.956
1

Report normalised cell viability for every entry below.
1. Nc1ncnc2c1ncn2[C@@H]1O[C@H](COP(=O)(O)CP(=O)(O)OP(=O)([O-])O)[C@@H](O)[C@H]1O.[Li+] [alpha,beta-Methylene adenosine 5'-triphosphate lithium salt]
2. N#CC(=C(/N)Sc1ccccc1N)/C(C#N)=C(\N)Sc1ccccc1N
3. CC[C@]1(O)C[C@@H]2CN(CCc3c([nH]c4ccccc34)[C@@](C(=O)OC)(c3cc4c(cc3OC)N(C)[C@H]3[C@@](O)(C(=O)OC)[C@H](OC(C)=O)[C@]5(CC)C=CCN6CC[C@]43[C@@H]65)C2)C1 [Vinblastine sulfate salt; Vinblastine sulfate]
4. N#C/C(=C/c1ccc(O)c(O)c1)C(=O)N1CCc2ccccc21 [Tyrphostin AG 528]

result:
0.992
1.01
1.03
0.977

Every entry's value here was drawn from the supplement of paper PMC8285479.
